Tested on: KRAS G12C mutant NCI-H358 cells
Experimental Details: Cell proliferation inhibition experiment, 3D spheroid, CellTiter-Glo, NCI-H358
Format: cell-based, human
Condition Info: Homo sapiens, NCI-H358, 120 h, NCI-H358 (KRAS G12C mutant) 3D spheroid, 5 days with compound, CellTiter-Glo; read-out: H358 IC50
// NB: equality with 20 nM counts as f; only IC50 strictly below is t

Qu. Determine if C=CC(=O)N1CCN2C(=O)c3c(N4C[C@H](N5CCN(C)CC5)CC4(C)C)nc(-c4c(F)cccc4Cl)c(Cl)c3OC[C@H]2C1 (single isomer, unassigned) shows IC50 strictly lower than 20 nM.
Ans. t

Qu. # repeat for C=CC(=O)N1CCN2C(=O)c3c(N4CCOCC4)nc(-c4nc(N)ccc4C(F)(F)F)c(Cl)c3OC[C@H]2C1
Ans. f

Qu. # repeat for C=CC(=O)N1CCN2C(=O)c3c(NC(C)C)nc(-c4c(O)cccc4F)c(Cl)c3OC[C@H]2C1
Ans. f

Qu. # repeat for C=CC(=O)N1CCN2C(=O)c3c(Oc4ccccc4C(C)C)nc(-c4c(O)cccc4F)c(Cl)c3OC[C@H]2C1
Ans. t

Qu. # repeat for C=CC(=O)N1CCN2C(=O)c3c(N4CCN(CCOC)C[C@@H]4C)nc(-c4c(O)cccc4F)c(Cl)c3OC[C@H]2C1 [Z257a]
Ans. t

Qu. # repeat for C=CC(=O)N1CCN2C(=O)c3c(N4CCC45CCC5)nc(-c4c(O)cccc4F)c(Cl)c3OC[C@H]2C1
Ans. f

Qu. # repeat for C=CC(=O)N1CCN2C(=O)c3c(N4C[C@H](O)CC4(C)C)nc(-c4ccccc4F)c(Cl)c3OC[C@H]2C1 (single isomer, unassigned)
Ans. t

Qu. # repeat for C=CC(=O)N1CCN2C(=O)c3c(N4CCC(N(C)C)CC4)nc(-c4c(O)cccc4F)c(Cl)c3OC[C@H]2C1
Ans. f

Qu. # repeat for C=CC(=O)N1CCN2C(=O)c3c(N4CC(N(C)CC(F)F)CC4(C)C)nc(-c4ccccc4F)c(Cl)c3OCC2C1 (single isomer, unassigned)
Ans. t

Qu. # repeat for C=CC(=O)N1CCN2C(=O)c3c(N4C[C@@H](N(C)C)CC4(C)C)nc(-c4cccc(C)c4F)c(Cl)c3OC[C@H]2C1 (single isomer, unassigned)
Ans. t

Qu. # repeat for C=CC(=O)N1CCN2C(=O)c3c(N4C[C@H](OC)CC4(C)C)nc(-c4c(O)cccc4F)c(F)c3OC[C@H]2C1 (single isomer, unassigned) [Z256a-2]
Ans. t

Qu. # repeat for C=CC(=O)N1CCN2C(=O)c3c(N4C[C@@H](N(C)C)CC4(C)C)nc(-c4ccccc4)c(Cl)c3OC[C@H]2C1 (single isomer, unassigned)
Ans. f

Qu. # repeat for C=CC(=O)N1CCN2Cc3c(NC(C)(C)C)nc(-c4c(O)cccc4F)c(Cl)c3OC[C@H]2C1
Ans. f

Qu. # repeat for C=CC(=O)N1CCN2C(=O)c3c(N4CCN(C)CC4)nc(-c4c(O)cccc4F)c(Cl)c3OC[C@H]2C1
Ans. f

Qu. # repeat for C=CC(=O)N1CCN2C(=O)c3c(OC4CCCN(C)C4)nc(-c4c(O)cccc4F)c(Cl)c3OC[C@H]2C1 (some centres unmarked)
Ans. f

Qu. # repeat for C=CC(=O)N1CCN2C(=O)c3c(N4C[C@H](CO)CC4(C)C)nc(-c4c(O)cccc4F)c(Cl)c3OC[C@H]2C1 (single isomer, unassigned)
Ans. t

Qu. # repeat for C=CC(=O)N1CCN2C(=O)c3c(N4CCCC4(C)C)nc(-c4c(O)cccc4F)c(Cl)c3OC[C@H]2C1
Ans. t

Qu. # repeat for C=CC(=O)N1CCN2C(=O)c3c(N4CCO[C@H](C)C4)nc(-c4c(O)cccc4F)c(Cl)c3OC[C@H]2C1
Ans. f

Qu. # repeat for C=CC(=O)N1CCN2C(=O)c3c(N4CCN(CC)C(C)(C)C4)nc(-c4c(O)cccc4F)c(Cl)c3OC[C@H]2C1
Ans. t

Qu. # repeat for C=CC(=O)N1CCN2C(=O)c3c(N4CC[C@@H]5C[C@@H]54)nc(-c4c(O)cccc4F)c(Cl)c3OC[C@H]2C1 (single isomer, unassigned)
Ans. t

Qu. # repeat for C=CC(=O)N1CCN2C(=O)c3c(N4CCOCC4(C)C)nc(-c4c(O)cccc4F)c(Cl)c3OC[C@H]2C1
Ans. f

Qu. # repeat for C=CC(=O)N1CCN2C(=O)c3c(N4CCN(C(=O)CC)C[C@@H]4C)nc(-c4c(O)cccc4F)c(Cl)c3OC[C@H]2C1
Ans. t

Qu. # repeat for C=CC(=O)N1CCN2C(=O)c3c(N4C[C@H](OC)C[C@@H]4C)nc(-c4c(O)cccc4F)c(Cl)c3OC[C@H]2C1 [Z259a]
Ans. t
